Quick reference for inhibition among some compounds
test: inhibitors of Sendai virus-induced IRF3 signaling, primary screen, TLR/RLR signaling modifier project, cell-based, Sendai virus stimulus, luciferase, 10K MLSCN set (AID 602276); settings: HEK293 RL24 IRF3 luciferase reporter, at 10 µM, active compounds read high;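 further: firefly luciferase from ISG56 promoter only with Renilla not read in this screen; 0% = Sendai virus plus DMSO and 100% = medium plus DMSO without virus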
Activity calls are given as the source filed them.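 How the source made its calls: active means inhibition at or above 50% at 10 µM; inactive means inhibition below 50%.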
assayMetric: inhibition

INSERT INTO assay_data (compound, assaymetric, readoutvalue) VALUES
  ('O=C(Nc1cccc2ccccc12)N1CCN(c2ccccc2)CC1', 'inhibition', '8.28% (inactive)'),
  ('Nn1c(SCC(=O)NC2CCCCC2)nnc1C1CC1', 'inhibition', '4.49% (inactive)'),
  ('CC(C(N)=O)N1C(=O)C2C3C=CC(C3)C2C1=O (stereo unspecified)', 'inhibition', '10.1% (inactive)'),
  ('CCN(CC)CCN1C(=O)C(=O)/C(=C(/O)c2c(C)[nH]c(C(=O)OC)c2C)C1c1ccccc1OC (stereo unspecified)', 'inhibition', '7.54% (inactive)'),
  ('CC(C)C(NC(=O)c1ccccc1NC(=O)c1ccco1)C(=O)O (stereo unspecified)', 'inhibition', '19% (inactive)'),
  ('O=C(OCc1ccc2c(c1)OCO2)c1ccc(S(=O)(=O)N2CCCCC2)cc1', 'inhibition', '7.08% (inactive)');
